Reference source for all entries: patent US20170290876A1

# test-target: T1, human VEGF (human, UniProt P15692 207-395, biotinylated (site not stated))
# T1 construct: Biotinylated human VEGF generated internally; also called hVEGF; hVEGF-biotin
# T1 sequence: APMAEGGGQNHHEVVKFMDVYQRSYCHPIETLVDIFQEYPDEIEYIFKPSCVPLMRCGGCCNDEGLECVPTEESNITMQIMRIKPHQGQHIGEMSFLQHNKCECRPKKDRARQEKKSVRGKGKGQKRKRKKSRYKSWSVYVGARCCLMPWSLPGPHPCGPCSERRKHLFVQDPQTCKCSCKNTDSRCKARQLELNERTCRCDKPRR
# protocol-notes: Biacore SPR, hVEGF
measure-name: pKd
Reminder that pKd is minus the log10 of a molar concentration.

Input: Give the measured pKd of NVS4 heavy chain variant D55N + D56N (Fab, V domains shown, CDR variant of NVS4) VH: EVQLVESGGGLVQPGGSLRLSCTASGFSLTDYYYMTWVRQAPGKGLEWVGFIDPNNDPYYATWAKGRFTISRDNSKNTLYLQMNSLRAEDTAVYYCAGGDHNSGWGLDIWGQGTLVTVSS VL: EIVMTQSPSTLSASVGDRVIITCQASEIIHSWLAWYQQKPGKAPKLLIYLASTLASGVPSRFSGSGSGAEFTLTISSLQPDDFATYYCQNVYLASTNGANFGQGTKLTVLK .
Output: 9.97

Input: Give the measured pKd of NVS4 heavy chain variant D31S (Fab, V domains shown, CDR variant of NVS4) VH: EVQLVESGGGLVQPGGSLRLSCTASGFSLTSYYYMTWVRQAPGKGLEWVGFIDPDDDPYYATWAKGRFTISRDNSKNTLYLQMNSLRAEDTAVYYCAGGDHNSGWGLDIWGQGTLVTVSS VL: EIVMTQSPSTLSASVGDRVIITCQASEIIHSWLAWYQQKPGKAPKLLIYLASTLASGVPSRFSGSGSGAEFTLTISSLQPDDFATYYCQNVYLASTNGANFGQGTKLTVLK .
Output: 11.05

Input: Give the measured pKd of LC2T (Fab, V domains shown, Light chain CDR variant LC2 with tagged NVS4 heavy chain) VH: EVQLVESGGGLVQPGGSLRLSCTASGFSLTDYYYMTWVRQAPGKGLEWVGFIDPDDDPYYATWAKGRFTISRDNSKNTLYLQMNSLRAEDTAVYYCAGGDHNSGWGLDIWGQGTLVTVSS VL: EIVMTQSPSTLSASVGDRVIITCQASQKIHSWLAWYQQKPGKAPKLLIYQASKLAKGVPSRFSGSGSGAEFTLTISSLQPDDFATYYCQNVYLASTNGANFGQGTKLTVLK .
Output: 11.88

Input: Give the measured pKd of HC6T (Fab, V domains shown, Tagged heavy chain CDR variant HC6 with NVS4 light chain) VH: EVQLVESGGGLVQPGGSLRLSCTASGFSLTNYYYMTWVRQAPGKGLEWVGFIDPQNQPYYATWAKGRFTISRDNSKNTLYLQMNSLRAEDTAVYYCAGGNHNSGWGLNIWGQGTLVTVSS VL: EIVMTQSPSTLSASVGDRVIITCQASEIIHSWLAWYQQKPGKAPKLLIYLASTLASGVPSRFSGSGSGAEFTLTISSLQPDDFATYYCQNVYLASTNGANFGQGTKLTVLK .
Output: 10.30

Input: Give the measured pKd of NVS4 heavy chain variant D31N (Fab, V domains shown, CDR variant of NVS4) VH: EVQLVESGGGLVQPGGSLRLSCTASGFSLTNYYYMTWVRQAPGKGLEWVGFIDPDDDPYYATWAKGRFTISRDNSKNTLYLQMNSLRAEDTAVYYCAGGDHNSGWGLDIWGQGTLVTVSS VL: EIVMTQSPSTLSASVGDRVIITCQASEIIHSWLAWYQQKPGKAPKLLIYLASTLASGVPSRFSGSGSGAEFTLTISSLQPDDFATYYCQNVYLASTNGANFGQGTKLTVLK .
Output: 11.39

Input: Give the measured pKd of LC3T (Fab, V domains shown, Light chain CDR variant LC3 with tagged NVS4 heavy chain) VH: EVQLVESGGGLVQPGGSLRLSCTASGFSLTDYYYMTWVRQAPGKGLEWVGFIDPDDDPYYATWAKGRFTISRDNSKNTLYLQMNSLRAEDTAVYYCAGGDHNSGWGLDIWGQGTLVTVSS VL: EIVMTQSPSTLSASVGDRVIITCQASQKIHSWLAWYQQKPGKAPKLLIYQASKLAKGVPSRFSGSGSGAEFTLTISSLQPDDFATYYCQNVYLASRNGANFGQGTKLTVLK .
Output: 11.92

Input: Give the measured pKd of NVS4 light chain variant S95K (Fab, V domains shown, CDR variant of NVS4) VH: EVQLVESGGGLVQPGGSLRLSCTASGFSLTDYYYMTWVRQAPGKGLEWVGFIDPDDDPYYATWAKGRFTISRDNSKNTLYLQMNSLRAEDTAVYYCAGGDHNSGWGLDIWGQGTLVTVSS VL: EIVMTQSPSTLSASVGDRVIITCQASEIIHSWLAWYQQKPGKAPKLLIYLASTLASGVPSRFSGSGSGAEFTLTISSLQPDDFATYYCQNVYLAKTNGANFGQGTKLTVLK .
Output: 10.09

Input: Give the measured pKd of HC4T (Fab, V domains shown, Tagged heavy chain CDR variant HC4 with NVS4 light chain) VH: EVQLVESGGGLVQPGGSLRLSCTASGFSLTNYYYMTWVRQAPGKGLEWVGFIDPQNDPYYATWAKGRFTISRDNSKNTLYLQMNSLRAEDTAVYYCAGGNHNSGWGLNIWGQGTLVTVSS VL: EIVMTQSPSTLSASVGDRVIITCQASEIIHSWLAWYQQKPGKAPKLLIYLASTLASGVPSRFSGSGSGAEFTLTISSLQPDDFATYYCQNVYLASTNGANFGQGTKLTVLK .
Output: 11.00

Input: Give the measured pKd of NVS4 heavy chain variant D100N + H101K (Fab, V domains shown, CDR variant of NVS4) VH: EVQLVESGGGLVQPGGSLRLSCTASGFSLTDYYYMTWVRQAPGKGLEWVGFIDPDDDPYYATWAKGRFTISRDNSKNTLYLQMNSLRAEDTAVYYCAGGNKNSGWGLDIWGQGTLVTVSS VL: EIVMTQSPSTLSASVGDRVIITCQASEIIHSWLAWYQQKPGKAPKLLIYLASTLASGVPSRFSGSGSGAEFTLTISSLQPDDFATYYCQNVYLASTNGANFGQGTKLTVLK .
Output: 9.43
